- System: ATP;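 note: ATP exposure 15 min at 22 °C before imaging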
- EXPERIMENT_SUMMARY: switch fluorescence ratio, 500 uM ATP over buffer (Cy3 cluster intensity, sum of 5 cycles each) (fold (ratio)); higher = stronger signal-on switching upon ATP binding; sequences stand for … in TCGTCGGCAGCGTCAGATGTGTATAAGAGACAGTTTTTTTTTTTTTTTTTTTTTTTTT…TC
- EXPERIMENTAL_CONTEXT: aptamer strand: ATP DNA aptamer (quencher-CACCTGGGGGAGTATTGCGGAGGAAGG + anchor), 100 nM annealed; ATP concentration: 500 uM
Recorded measurements of switch fluorescence ratio, one per entry
READOUT: switch fluorescence ratio

>>> print(df.to_string())
   entry_sequence  measurement_target  obs_value
0      GTTCAAGGCT                 ATP          1
1      AGGGGTTGTT                 ATP       1.07
2      AACCGGGGAC                 ATP       1.31
3      TCATCGGTTC                 ATP          1
4      TATACGACAT                 ATP       1.16

---

Below, each of the sequences is paired with its reported switch fluorescence ratio value.
- System: ATP;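 note: ATP exposure 15 min at 22 °C before imaging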
- EXPERIMENT_SUMMARY: switch fluorescence ratio, 500 uM ATP over buffer (Cy3 cluster intensity, sum of 5 cycles each) (fold (ratio)); higher = stronger signal-on switching upon ATP binding; sequences stand for … in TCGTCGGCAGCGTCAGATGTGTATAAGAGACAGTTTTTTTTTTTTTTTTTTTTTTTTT…TC
- EXPERIMENTAL_CONTEXT: aptamer strand: ATP DNA aptamer (quencher-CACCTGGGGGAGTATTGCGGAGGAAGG + anchor), 100 nM annealed; ATP concentration: 500 uM
READOUT: switch fluorescence ratio

In [3]: df
Out[3]:
   entry_sequence  measurement_target  obs_value
0      GGTTAAGCGG                 ATP      0.972
1      AATTAAGGCC                 ATP      0.992
2      CTCGTACTTA                 ATP          1
3      GTTTGGGACG                 ATP      0.991
4      TACGGGGGCG                 ATP       1.01

---

- System: ATP;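 note: ATP exposure 15 min at 22 °C before imaging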
- EXPERIMENT_SUMMARY: switch fluorescence ratio, 500 uM ATP over buffer (Cy3 cluster intensity, sum of 5 cycles each) (fold (ratio)); higher = stronger signal-on switching upon ATP binding; sequences stand for … in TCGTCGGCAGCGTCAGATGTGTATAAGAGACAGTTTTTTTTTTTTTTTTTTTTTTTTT…TC
- EXPERIMENTAL_CONTEXT: aptamer strand: ATP DNA aptamer (quencher-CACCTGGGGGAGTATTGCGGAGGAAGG + anchor), 100 nM annealed; ATP concentration: 500 uM
READOUT: switch fluorescence ratio

>>> print(df.to_string())
   entry_sequence  measurement_target  obs_value
0      ATTACTTAAG                 ATP          1
1      CAAGCTTAAA                 ATP      0.973
2      AGACGTCGGG                 ATP       1.02
3      GATGTTTAAT                 ATP      0.991
4      ACAATATAGA                 ATP       1.01
5      AAAATTTGTG                 ATP      0.995
6      TGGAAGTTGG                 ATP      0.989

---

- Test system: ATP;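 note: ATP exposure 15 min at 22 °C before imaging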
- EXPERIMENT_SUMMARY: switch fluorescence ratio, 500 uM ATP over buffer (Cy3 cluster intensity, sum of 5 cycles each) (fold (ratio)); higher = stronger signal-on switching upon ATP binding; sequences stand for … in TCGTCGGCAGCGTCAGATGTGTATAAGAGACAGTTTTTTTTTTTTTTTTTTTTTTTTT…TC
- EXPERIMENTAL_CONTEXT: aptamer strand: ATP DNA aptamer (quencher-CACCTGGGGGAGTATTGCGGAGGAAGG + anchor), 100 nM annealed; ATP concentration: 500 uM
switch fluorescence ratio below 1 gives No; switch fluorescence ratio at or above it gives Yes.

>>> df
    entry_sequence  group
 0      CCCGGGTAGT    Yes
 1      TACGGGAACG    Yes
 2      CAGGCAAGCT    Yes
 3      TCGCAGTGGG    Yes
 4      GGGTCCTGCG    Yes
 5      CCTGGGGGTT    Yes
 6      CGGAAGGAAG     No
 7      TCGTTCTTTT     No
 8      ACGAGTTCGC    Yes
 9      ATATCTTATG     No
10      TAACTTACAT    Yes
11      ATGCTTGAAC    Yes
12       CTCTTTGCC    Yes
13      TTTACTTCTA    Yes
14      CTTTGCTTTT     No
15      ACCTTATAAT    Yes

---

- Test system: ATP;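 note: ATP exposure 15 min at 22 °C before imaging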
- EXPERIMENT_SUMMARY: switch fluorescence ratio, 500 uM ATP over buffer (Cy3 cluster intensity, sum of 5 cycles each) (fold (ratio)); higher = stronger signal-on switching upon ATP binding; sequences stand for … in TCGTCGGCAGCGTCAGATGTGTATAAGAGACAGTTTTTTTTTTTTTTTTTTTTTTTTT…TC
- EXPERIMENTAL_CONTEXT: aptamer strand: ATP DNA aptamer (quencher-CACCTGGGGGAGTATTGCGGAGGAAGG + anchor), 100 nM annealed; ATP concentration: 500 uM
READOUT: switch fluorescence ratio

>>> df
    entry_sequence  measurement_target                    readout  obs_value
 0      AACGTGTGGA                 ATP  switch fluorescence ratio      0.998
 1      TCGTTGGCAA                 ATP  switch fluorescence ratio        2.3
 2      TATGGATAGT                 ATP  switch fluorescence ratio      0.998
 3      GGGGGTATTA                 ATP  switch fluorescence ratio       0.97
 4      ATTTGCCCAT                 ATP  switch fluorescence ratio      0.986
 5      ATCGGGAGAC                 ATP  switch fluorescence ratio       1.27
 6      CTGCGGGGGT                 ATP  switch fluorescence ratio       1.03
 7      TTGGTTACAC                 ATP  switch fluorescence ratio       1.01
 8      TGAATCTTGG                 ATP  switch fluorescence ratio       1.02
 9      GACGGCGCTG                 ATP  switch fluorescence ratio      0.957
10      TTCACGGGTT                 ATP  switch fluorescence ratio       1.01
11      CGAGTACTGT                 ATP  switch fluorescence ratio      0.994
12      CCGGTGTGTA                 ATP  switch fluorescence ratio       1.03
13      GGGAAACCAC                 ATP  switch fluorescence ratio       1.04
14      GGGGGAAAGT                 ATP  switch fluorescence ratio      0.992
15      CAGAGGTATG                 ATP  switch fluorescence ratio       1.01
16      TTGTGGTCGG                 ATP  switch fluorescence ratio      0.982
17      TGACTTAACT                 ATP  switch fluorescence ratio       1.09
18      CTCAGGTGGC                 ATP  switch fluorescence ratio       1.04
19      TATGGGCAGT                 ATP  switch fluorescence ratio       1.01
20      CGAATATTTG                 ATP  switch fluorescence ratio      0.996
21      AAGTTCTGGA                 ATP  switch fluorescence ratio      0.976
22       TATTTGACG                 ATP  switch fluorescence ratio       1.02
23      AGGGAAAAGG                 ATP  switch fluorescence ratio       1.02
24      AAATTGTGTG                 ATP  switch fluorescence ratio      0.999
25      GGGGCTTTCC                 ATP  switch fluorescence ratio       1.09
26      TTTTGTTGTT                 ATP  switch fluorescence ratio      0.995
27      GACCACAGCG                 ATP  switch fluorescence ratio       1.02
28      CGACGAAACT                 ATP  switch fluorescence ratio       1.15
29      TCGTAGGGTT                 ATP  switch fluorescence ratio       1.01
30      TTGGGTTGGA                 ATP  switch fluorescence ratio      0.996
31      ATTTTGAGTT                 ATP  switch fluorescence ratio      0.982
32      AATTTTTGTG                 ATP  switch fluorescence ratio      0.988
33      CGACTGTTTT                 ATP  switch fluorescence ratio       1.02
34      GATGGGAGTG                 ATP  switch fluorescence ratio          1
35      TGTGAAACAA                 ATP  switch fluorescence ratio       1.01
36      TGCCAGTGTT                 ATP  switch fluorescence ratio       1.22
37      TACATGAAGG                 ATP  switch fluorescence ratio      0.995
38      TTTACAGTGG                 ATP  switch fluorescence ratio       1.05
39      GGCGTGTCAG                 ATP  switch fluorescence ratio      0.951
40      TAACACTCCT                 ATP  switch fluorescence ratio        1.1
41      TCGTTTTGCG                 ATP  switch fluorescence ratio      0.998
42      CTGGGCAGGG                 ATP  switch fluorescence ratio       1.02
43      GATGGTGAGA                 ATP  switch fluorescence ratio       1.02
44      AAAGCGTGTG                 ATP  switch fluorescence ratio       1.01
45      GGTTTGCGTG                 ATP  switch fluorescence ratio      0.988
46      ATTTTGTCAT                 ATP  switch fluorescence ratio      0.972
47      GGTCGCCCAG                 ATP  switch fluorescence ratio       1.01
48      TCTTTGGGGA                 ATP  switch fluorescence ratio       1.04
49      GTTGCAGCCT                 ATP  switch fluorescence ratio      0.981
50      GTTGATCTGC                 ATP  switch fluorescence ratio          1
51      GACGAATGGG                 ATP  switch fluorescence ratio      0.985
52      GGGTAAAAAG                 ATP  switch fluorescence ratio      0.991
53      GTTGCATATT                 ATP  switch fluorescence ratio      0.978
54      TAGGTAAGAT                 ATP  switch fluorescence ratio      0.993
55      AAAGCAGGGA                 ATP  switch fluorescence ratio       1.04
56      CCTTACGGCA                 ATP  switch fluorescence ratio       1.53
57      GCGCGACGGA                 ATP  switch fluorescence ratio      0.991
58      TCGGGGAATG                 ATP  switch fluorescence ratio          1
59      AGTCCGGGAG                 ATP  switch fluorescence ratio       1.02
60      TGGGAGTCTG                 ATP  switch fluorescence ratio       0.99
